Hello, the source for this data is ChEMBL document CHEMBL1132295, in case you need it.

Quick list: Reduction per entry.
- System: Mus musculus
- assay protocol: Compound was administered at a dose of 10 mg/kg/day to evaluate the percentage reduction in plasma glucose(PG) after 14 days of treatment in db/db mice via oral gavage.
Write the value in % as a bare number.

Please review the entries below; each comes with its answer.
>>> obs_value("Cl.O=C1NC(=O)/C(=C/c2ccc(OC[C@@H]3CCCN3c3ccccn3)cc2)S1")
61
>>> obs_value("O=C1[N-]C(=O)C(Cc2ccc(OCC3CN(c4ccccn4)CCO3)cc2)S1.[Na+] (centres undefined)")
66
>>> obs_value("O=C(O)/C=C\\C(=O)O.O=C1NC(=O)/C(=C/c2ccc(OC[C@@H]3CCCN3c3ccccn3)cc2)S1")
49.6

Now for the molecule whose Reduction we want.
Given CN(CCOc1ccc(CC2SC(=O)NC2=O)cc1)c1ccccn1 (stereo in doubt; form 1) , report its Reduction on Mus musculus.
47.25
